# GI50 values compiled below
Tested on: OVCAR-5
Experiment: NCI tumour cell line growth inhibition, 48 h
The source made the active and inactive calls. Cut-off read from the data, not from the text of the source: active = GI50 up to about 1.1 µM and inactive = higher.

compound: O=c1/c(=C/c2ccc([N+](=O)[O-])o2)sc2n1[C@@H](c1ccc3c(c1)OCO3)C=C(c1cc(F)c(Cl)cc1Cl)N=2
target_entity: OVCAR-5
GI50: 21.7 µM (inactive)

compound: O=S(=O)(O)C1=C2Sc3ccccc3N=C2c2ccccc2C1
target_entity: OVCAR-5
GI50: 20.2 µM (inactive)

compound: O=C(O)c1ccc(Nc2nc3ccccc3nc2-c2cccs2)cc1
target_entity: OVCAR-5
GI50: > 100 µM (inactive)

====

Test system: PC-3
Assay: NCI tumour cell line growth inhibition, 48 h
Activity calls are given as the source filed them. Cut-off read from the data, not from the text of the source: active = GI50 up to about 1.1 µM and inactive = higher.
Outcomes: 1 (yes) (active), 0 (no) (inactive)

compound: c1ccc(Nc2nnc(CCCCCCCCc3nnc(Nc4ccccc4)o3)o2)cc1
category_label: 0 (no)
--
compound: O=C(O)CCCSc1nc2ccccc2s1
category_label: 0 (no)
--
compound: COC(=O)C(=O)C(C(=O)C(=O)Nc1ccccc1C(=O)OC)c1nc2ccc(C(=O)c3ccccc3)cc2nc1O (stereo not given)
category_label: 0 (no)
--
compound: CC(C)(CO)NC1=C(Cl)C(=O)c2c(O)ccc(O)c2C1=O
category_label: 0 (no)
--
compound: COc1cc2c(cc1OCCCCCOc1cc3c(cc1OC)C(=O)N1CCC[C@H]1C(=O)N3)N=C[C@@H]1CCCN1C2=O
category_label: 1 (yes)
--
compound: CCOC(=O)C1=C(C)OC(=O)[C@@]2(OC)C=C(Cl)[C@@]12C
category_label: 0 (no)
--
compound: CN(CCc1ccccn1)c1ccc2c(c1)Cc1ccccc1-2
category_label: 0 (no)
--
compound: COC(=O)c1c2c(cc3c1CC1(C3)Cc3cc4c(c(C(C)=O)c3C1)CCC4)C=CC2 (stereo not given)
category_label: 0 (no)
--
compound: NC(Cc1ccc2nc3c4ccccc4c(=O)cc-3oc2c1)C(=O)O (stereo not given)
category_label: 0 (no)
--
compound: N=C(N)N/N=C/c1c(-c2ccc(Cl)cc2)nc2sccn12
category_label: 0 (no)
--
compound: Clc1ccc(NCNC2Nc3ccccc3N2)cc1Cl
category_label: 0 (no)
--
compound: O=C(ON=c1c2ccccc2ccc2ccccc12)c1ccccc1
category_label: 0 (no)
--
compound: O=C(O)/C(Cl)=C(/Cl)C(=O)Nc1cccc(Cl)c1
category_label: 0 (no)
--
compound: CN(C)CCNc1ccc2ncnc3c2c1C(=O)c1ccccc1-3
category_label: 1 (yes)
--
compound: O=C(O)c1c(CC(Cc2ccc3c(c2)CCCC3)C(=O)O)ccc2c1CCCC2 (stereo not given)
category_label: 0 (no)
--
compound: O=C(O)c1ccc(Nc2nc3ccccc3nc2-c2cccs2)cc1
category_label: 0 (no)
--
compound: CCCCCCCCCCCCOP(=O)(O)OCC(N)C(=O)O (stereo not given)
category_label: 0 (no)
--
compound: CCN(CC)CCOC(=O)Cc1cccc2c(=O)cc(-c3ccccc3)oc12
category_label: 0 (no)
--
compound: CC(C)c1ccc2c(c1)/C(=C1/Nc3ccccc3/C1=N/O)C(=O)N2
category_label: 0 (no)
--
compound: Cc1[nH]n(-c2nc3c(c(=O)[nH]2)CCC3)c(=O)c1CCO
category_label: 0 (no)
--
compound: Cn1c(COC(=O)NC2CCCCC2)c(COC(=O)NC2CCCCC2)c2ccc3cc(Cl)c(Cl)cc3c21
category_label: 0 (no)
--
compound: CCOC(=O)c1cn(C)nc1N/C(C)=C\C(=O)c1ccccc1
category_label: 0 (no)
--
compound: CC1(C)[C@@H]2C[C@H]1c1cnc(-c3ccccn3)cc1C2CCCCC[C@@H]1c2cc(-c3ccccn3)ncc2[C@@H]2C[C@H]1C2(C)C (stereo not given in full)
category_label: 0 (no)
--
compound: CC(=O)NC1C(CO)O[C@@H]2OC(C)(C)O[C@H]12 (stereo not given in full)
category_label: 0 (no)
--
compound: CC(C)(C)[Si](C)(C)OCC1OC(n2cnc3c(=O)[nH]c(N)nc32)C(O[Si](C)(C)C(C)(C)C)C1O[Si](C)(C)C(C)(C)C (stereo not given)
category_label: 0 (no)
--
compound: CCOc1cc2oc(C)cc(=O)c2c(OC)c1/C=N/c1ccc(Cn2c(C)nc3ccccc32)cc1
category_label: 0 (no)
--
compound: CC(=O)Oc1cc2c(cc1OC(C)=O)[C@H]1CC[C@]3(C)[C@@H](OC(C)=O)CC[C@H]3[C@@H]1CC2
category_label: 0 (no)
--
compound: Cc1cn2c(/C=N/NC(=N)N)c(-c3cc([N+](=O)[O-])c(Cl)cc3Cl)nc2s1
category_label: 0 (no)
--
compound: CCCCCCCCCCCCCCCCOP(=O)(O)OCC(N)C(=O)O (stereo not given)
category_label: 0 (no)
--
compound: CCNC(=S)NNC(=O)c1ccccc1Nc1ccccc1C(=O)NNC(=S)NCC
category_label: 0 (no)
--
compound: O=C(Nc1nnc(-c2ccc(Cl)cc2)o1)C(SC(=S)N1CCCCC1)c1ccccc1 (stereo not given)
category_label: 0 (no)
--
compound: N#Cc1c(NC(=O)CCC(=O)O)ccc2ccccc12
category_label: 0 (no)
--
compound: NCCCCNC1(c2cc3ccccc3s2)CCCCC1
category_label: 0 (no)
--
compound: CCN(CC)CCOC(c1cc(OC)ccc1OC)c1ccc2n1-c1ccccc1OC2 (stereo not given)
category_label: 0 (no)
--
compound: CCOC(=O)c1cc(C)nc2c1c(=O)n(-c1ccccc1)c(=O)n2CCCCN1CCN(c2ccccc2)CC1
category_label: 0 (no)
